Literature compilation of pIC50 measurements on Receptor-type tyrosine-protein kinase FLT3 (Homo sapiens).
pIC50: −log10 of the molar value.

[
  {
    "compound": "COC[C@H](C)Nc1ncc2c(-c3cnn(CC(C)C)c3)cc([C@H]3CC[C@H](O)CC3)n2n1",
    "target.or.system": "Receptor-type tyrosine-protein kinase FLT3 (Homo sapiens)",
    "pIC50": "6.00 to 7.00"
  },
  {
    "compound": "CCCC(C)Nc1ncc2c(N3CCC[C@H](N(C)C)C3)ncc([C@H]3CC[C@H](O)CC3)c2n1 (stereo partly shown)",
    "target.or.system": "Receptor-type tyrosine-protein kinase FLT3 (Homo sapiens)",
    "pIC50": "5.00 to 6.00"
  },
  {
    "compound": "CC(=O)N1CCN(Cc2ccc(-c3cc(C4CCC(O)CC4)n4nc(NC(C)CC(F)(F)F)ncc34)cc2)CC1 (stereo not shown)",
    "target.or.system": "Receptor-type tyrosine-protein kinase FLT3 (Homo sapiens)",
    "pIC50": "≥ 7.00"
  },
  {
    "compound": "CCOc1ccc(Nc2ccc(C(=O)c3c[nH]c4ncnc(C)c34)c(F)n2)cn1",
    "target.or.system": "Receptor-type tyrosine-protein kinase FLT3 (Homo sapiens)",
    "pIC50": "> 7.00"
  }
]
